# Test system: Enterococcus faecium
# EXPERIMENT SUMMARY: Antimicrobial activity against Enterococcus faecium NCTC 12201 by standard serial-dilution technique
# Type: functional
EXPERIMENTAL READOUT: MIC (µg/mL)

1) CC(C)[C@@H]1NC(=O)[C@@H]2[C@H](C)CCN2C(=O)CN/C(=N\[C@H](C(=O)N[C@H](C(=O)N[C@H](CC(=O)N2CCSCC2)c2nccs2)[C@@H](C)c2ccccc2)C(C)(C)C)[C@H](C(C)(C)C)NC1=O ... 4
2) CCCC(=O)C[C@@H](NC(=O)[C@@H](NC(=O)[C@@H](/N=C1\NCC(=O)N2CC[C@@H](C)[C@H]2C(=O)N[C@@H](C(C)C)C(=O)N[C@H]1C(C)(C)C)C(C)(C)C)[C@@H](C)c1ccccc1)c1nccs1 ... 2
